Where do these numbers come from? They come from paper PMC7782793.

# system: HDAC3/NCoR2 (Homo sapiens, UniProt O15379)
# Construct: HDAC3/NCoR2 (full length, C-terminal His tag, NCoR2 N-terminal GST tag); purchased BPS Bioscience 50003
# Sequence (O15379 whole entry): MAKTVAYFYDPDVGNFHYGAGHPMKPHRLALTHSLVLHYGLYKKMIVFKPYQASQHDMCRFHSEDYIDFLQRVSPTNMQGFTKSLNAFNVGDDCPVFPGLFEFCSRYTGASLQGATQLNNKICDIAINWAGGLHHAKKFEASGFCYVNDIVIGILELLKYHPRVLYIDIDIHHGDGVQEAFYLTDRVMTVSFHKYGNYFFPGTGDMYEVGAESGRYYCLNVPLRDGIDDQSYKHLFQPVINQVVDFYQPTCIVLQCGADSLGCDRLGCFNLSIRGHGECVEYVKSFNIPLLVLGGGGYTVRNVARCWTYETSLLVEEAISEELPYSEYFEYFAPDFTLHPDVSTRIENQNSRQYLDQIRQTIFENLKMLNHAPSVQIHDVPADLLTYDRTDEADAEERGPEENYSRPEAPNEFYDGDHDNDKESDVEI
# Sequence (Q9Y618 389-480 partner limits assumed): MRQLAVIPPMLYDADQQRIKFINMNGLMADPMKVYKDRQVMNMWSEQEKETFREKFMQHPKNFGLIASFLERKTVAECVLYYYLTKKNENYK
# protocol-details: HDAC inhibition assay (fluorogenic, Ac-Leu-Gly-Lys(Ac)-AMC)
# Type: biochemical
Non-standard residues stand in square brackets, D forms with d. Residues, ends and D or L forms follow the SMILES beside them. *: point of attachment. Asu = N[C@@H](CCCCCC(=O)O)C(=O)O; NHOH = ON*
metric: Ki

What does the data say about its Ki? Entry: CC(=O)N[C@@H](C)C(=O)N[C@H](C(=O)NCC(=O)NCC(=O)N[C@H](C(=O)N[C@@H](CCCCCC(=O)NO)C(=O)N[C@@H](CCCCN)C(=O)N1CCC[C@H]1C(=O)N[C@@H](Cc1c[nH]cn1)C(=O)N[C@@H](CCCNC(=N)N)C(=O)N[C@@H](Cc1ccc(O)cc1)C(=O)N[C@@H](CCCNC(=N)N)C(=O)N1CCC[C@H]1C(=O)NCC(=O)N[C@H](C(=O)N[C@H](C(=O)N[C@@H](Cc1c[nH]c2ccccc12)C(N)=O)C(C)C)[C@@H](C)O)C(C)C)[C@@H](C)O [15a] (Ac-ATGGV[Asu](NHOH)KPHRYRPGTVW-NH2)
21.7 nM

###

# system: HDAC3/NCoR2 (Homo sapiens, UniProt O15379)
# Construct: HDAC3/NCoR2 (full length, C-terminal His tag, NCoR2 N-terminal GST tag)
# protocol-details: HDAC inhibition assay (fluorogenic, Ac-Leu-Gly-Lys(Ac)-AMC)
Non-standard residues stand in square brackets, D forms with d. Residues, ends and D or L forms follow the SMILES beside them. *: point of attachment. Asu = N[C@@H](CCCCCC(=O)O)C(=O)O; NHOH = ON*
I'd be grateful if you could share measured Ki for these entries.
One number for each entry, in nM.

Worked set:
[
  {
    "compound": "CC(=O)N[C@@H](C)C(=O)N1CCC[C@H]1C(=O)N[C@@H](C)C(=O)N1CCC[C@H]1C(=O)N[C@@H](CCCCN)C(=O)N[C@@H](CCCCCC(=O)NO)C(=O)NCC(=O)N[C@@H](CO)C(=O)N[C@@H](CCCCN)C(=O)N[C@@H](CCCCN)C(=O)N[C@@H](C)C(=O)N[C@H](C(=O)N[C@H](C(=O)N[C@@H](CCCCN)C(=O)N[C@@H](C)C(=O)N[C@@H](CCC(N)=O)C(=O)N[C@@H](Cc1c[nH]c2ccccc12)C(N)=O)[C@@H](C)O)C(C)C [10a] (Ac-APAPK[Asu](NHOH)GSKKAVTKAQW-NH2)",
    "system": "HDAC3/NCoR2 (Homo sapiens, UniProt O15379)",
    "reported-measurement": 51.2
  },
  {
    "compound": "CC(=O)N[C@@H](C)C(=O)N[C@@H](CCCNC(=N)N)C(=O)N[C@@H](CCCCN)C(=O)N[C@@H](CO)C(=O)N[C@H](C(=O)NCC(=O)NCC(=O)N[C@@H](CCCCN)C(=O)N[C@@H](C)C(=O)N1CCC[C@H]1C(=O)N[C@@H](CCCNC(=N)N)C(=O)N[C@@H](CCCCCC(=O)NO)C(=O)N[C@@H](CCC(N)=O)C(=O)N[C@@H](CC(C)C)C(=O)N[C@@H](C)C(=O)N[C@H](C(=O)N[C@@H](Cc1c[nH]c2ccccc12)C(N)=O)[C@@H](C)O)[C@@H](C)O [13a] (Ac-ARKSTGGKAPR[Asu](NHOH)QLATW-NH2)",
    "system": "HDAC3/NCoR2 (Homo sapiens, UniProt O15379)",
    "reported-measurement": 2.14
  }
]

For the next question, use this compound.
Please report the recorded Ki for CC(=O)NCC(=O)NCC(=O)N[C@@H](CCCCCC(=O)NO)C(=O)N[C@@H](C)C(=O)N[C@@H](CCCNC(=N)N)C(=O)N[C@@H](C)C(=O)N[C@@H](CCCCN)C(=O)N[C@@H](C)C(=O)N[C@@H](CCCCN)C(=O)N[C@H](C(=O)N[C@@H](CCCNC(=N)N)C(=O)N[C@@H](CO)C(=O)N[C@@H](CO)C(=O)N[C@@H](CCCNC(=N)N)C(=O)N[C@@H](C)C(=O)NCC(=O)N[C@@H](Cc1c[nH]c2ccccc12)C(N)=O)[C@@H](C)O [9a] (Ac-GG[Asu](NHOH)ARAKAKTRSSRAGW-NH2) .
7.66
